Some molecules, each annotated with its measured pIC50.
# Tested on: 276233-004-R-J1-PDC KRAS spheroids with HUVEC/MSC, viability
# protocol.details: Anticancer human tumor 276233-004-R-J1-PDC patient-derived colon adenocarcinoma cell line growth inhibition [KRAS2]
# assay.context: curve of first compound; second compound 10 µM
pIC50: −log10 of the molar value.

Input line: Need pIC50, item CC(=O)OC12COC1CC(O)C1(C)C(=O)C(O)C3=C(C)C(OC(=O)C(O)C(NC(=O)OC(C)(C)C)c4ccccc4)CC(O)(C(OC(=O)c4ccccc4)C21)C3(C)C (stereo not given) + CC1OCC2(CCN(c3cnc(Sc4ccnc(N)c4Cl)c(N)n3)CC2)C1N
Output line: > 8.00

---
Input line: Need pIC50, item CC(=O)OC12COC1CC(O)C1(C)C(=O)C(O)C3=C(C)C(OC(=O)C(O)C(NC(=O)OC(C)(C)C)c4ccccc4)CC(O)(C(OC(=O)c4ccccc4)C21)C3(C)C (stereo not given) + COc1cc2nc(C)nc(NC(C)c3cc(N)cc(C(F)(F)F)c3)c2cc1OC1CCOC1
Output line: < 5.50

Input line: Need pIC50, item CC1COCCN1c1cc(-c2ccnn2C)c2ccnc(-c3ccn[nH]3)c2n1 (stereo not given) + CNCc1ccccc1-c1csc(C(C)Nc2nc(C)nc3cc(OC)c(OC)cc23)c1
Output line: > 8.00

Input line: Need pIC50, item CC(=O)Nc1cccc(-n2c(=O)n(C3CC3)c(=O)c3c(Nc4ccc(I)cc4F)n(C)c(=O)c(C)c32)c1 + C=CC(=O)N1CCN(c2nc(=O)n(-c3c(C)ccnc3C(C)C)c3nc(-c4c(O)cccc4F)c(F)cc23)C(C)C1
Output line: 8.61

Input line: Need pIC50, item CCNC(=O)CC1N=C(c2ccc(Cl)cc2)c2cc(OC)ccc2-n2c(C)nnc21 (stereo not given) + COc1cc2nc(C)nc(NC(C)c3cc(N)cc(C(F)(F)F)c3)c2cc1OC1CCOC1
Output line: > 7.50

====

# Tested on: 276233-004-R-J1-PDC KRAS spheroids with HUVEC/MSC, viability
# protocol.details: Anticancer human tumor 276233-004-R-J1-PDC cell line growth inhibition [KRAS2];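 further: cells exposed to agents for seven days before viability read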;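 on viability, T/C: 100% = DMSO vehicle control wells and lower values mean fewer viable cells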
# assay.context: second compound 0.1 µM; first compound 1 µM; stronger effect = lower value
readout.name: viability, T/C (%)
Entry rule: numbers only, all in %.

Input line: Need viability, T/C, item CC(=O)OC12COC1CC(O)C1(C)C(=O)C(O)C3=C(C)C(OC(=O)C(O)C(NC(=O)OC(C)(C)C)c4ccccc4)CC(O)(C(OC(=O)c4ccccc4)C21)C3(C)C (centres undefined) + C=CC(=O)N1CCN(c2nc(=O)n(-c3c(C)ccnc3C(C)C)c3nc(-c4c(O)cccc4F)c(F)cc23)C(C)C1
Output line: 86.3

Input line: Need viability, T/C, item Cn1nccc1Nc1nccc(-c2cc3c(s2)C(C)(C)N(CCN2CCOCC2)C3=O)n1 + C=CC(=O)N1CCN(c2nc(=O)n(-c3c(C)ccnc3C(C)C)c3nc(-c4c(O)cccc4F)c(F)cc23)C(C)C1
Output line: 71.6

Input line: Need viability, T/C, item Cn1nccc1Nc1nccc(-c2cc3c(s2)C(C)(C)N(CCN2CCOCC2)C3=O)n1 + CNCc1ccccc1-c1csc(C(C)Nc2nc(C)nc3cc(OC)c(OC)cc23)c1
Output line: 81.6

Input line: Need viability, T/C, item CC(C)NCC(C(=O)N1CCN(c2ncnc3c2C(C)CC3O)CC1)c1ccc(Cl)cc1 (centres undefined) + COc1cc2nc(C)nc(NC(C)c3cc(N)cc(C(F)(F)F)c3)c2cc1OC1CCOC1
Output line: 56.6

Input line: Need viability, T/C, item COc1cc(Nc2ncc3c(n2)-c2ccc(Cl)cc2C(c2c(F)cccc2OC)=NC3)ccc1C(=O)O + CNCc1ccccc1-c1csc(C(C)Nc2nc(C)nc3cc(OC)c(OC)cc23)c1
Output line: 104

---
Input line: Need viability, T/C, item CCN1CCN(Cc2ccc(Nc3ncc(F)c(-c4cc(F)c5nc(C)n(C(C)C)c5c4)n3)nc2)CC1 + CC1OCC2(CCN(c3cnc(Sc4ccnc(N)c4Cl)c(N)n3)CC2)C1N
Output line: 111

Input line: Need viability, T/C, item COc1cc(Nc2ncc3c(n2)-c2ccc(Cl)cc2C(c2c(F)cccc2OC)=NC3)ccc1C(=O)O + C=CC(=O)N1CCN(c2nc(OCC3CCCN3C)nc3c2CCN(c2cccc4cccc(C)c24)C3)CC1CC#N
Output line: 73.6

Input line: Need viability, T/C, item Cn1nccc1Nc1nccc(-c2cc3c(s2)C(C)(C)N(CCN2CCOCC2)C3=O)n1 + COc1cc2nc(C)nc(NC(C)c3cc(N)cc(C(F)(F)F)c3)c2cc1OC1CCOC1
Output line: 59.4

Input line: Need viability, T/C, item CCN1CCN(Cc2ccc(Nc3ncc(F)c(-c4cc(F)c5nc(C)n(C(C)C)c5c4)n3)nc2)CC1 + COc1cc2nc(C)nc(NC(C)c3cc(N)cc(C(F)(F)F)c3)c2cc1OC1CCOC1
Output line: 115

====

# System: 276233-004-R-J1-PDC KRAS spheroids with HUVEC/MSC, viability
# protocol.details: Anticancer human tumor 276233-004-R-J1-PDC cell line growth inhibition [KRAS2];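 further: cells exposed to agents for seven days before viability read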
# assay.context: curve of first compound; second compound 10 µM
Some compounds, each annotated with its measured IC50.

Some compounds with recorded IC50:
Input line: Need IC50, item COC(=O)c1ccc2c(C(=Nc3ccc(N(C)C(=O)CN4CCN(C)CC4)cc3)c3ccccc3)c(O)[nH]c2c1 + CNCc1ccccc1-c1csc(C(C)Nc2nc(C)nc3cc(OC)c(OC)cc23)c1
Output line: < 31.6 nM

Input line: Need IC50, item O=C(c1cc(Cc2n[nH]c(=O)c3ccccc23)ccc1F)N1CCN(C(=O)C2CC2)CC1 + C=CC(=O)N1CCN(c2nc(=O)n(-c3c(C)ccnc3C(C)C)c3nc(-c4c(O)cccc4F)c(F)cc23)C(C)C1
Output line: > 10000 nM

Input line: Need IC50, item COc1cc(Nc2ncc3c(n2)-c2ccc(Cl)cc2C(c2c(F)cccc2OC)=NC3)ccc1C(=O)O + CC1OCC2(CCN(c3cnc(Sc4ccnc(N)c4Cl)c(N)n3)CC2)C1N
Output line: < 31.6 nM

Input line: Need IC50, item O=C(c1cc(Cc2n[nH]c(=O)c3ccccc23)ccc1F)N1CCN(C(=O)C2CC2)CC1 + CC1OCC2(CCN(c3cnc(Sc4ccnc(N)c4Cl)c(N)n3)CC2)C1N
Output line: 70.7 nM

---
Input line: Need IC50, item CN(C)C/C=C/C(=O)Nc1cc2c(Nc3ccc(F)c(Cl)c3)ncnc2cc1O[C@H]1CCOC1 + C=CC(=O)N1CCN(c2nc(=O)n(-c3c(C)ccnc3C(C)C)c3nc(-c4c(O)cccc4F)c(F)cc23)C(C)C1
Output line: > 100 nM

====

# Tested on: 276233-004-R-J1-PDC KRAS spheroids with HUVEC/MSC, viability
# protocol.details: Anticancer human tumor 276233-004-R-J1-PDC cell line growth inhibition [KRAS2]; active = viability on the fitted dose curve at most 10% of control; inactive = the rest;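 further: cells exposed to agents for seven days before viability read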
# assay.context: second compound 3.16 µM; first compound 0.000316 µM
# output must be one of yes for active, no for inactive

Input line: Would you mind telling me which call this test gave CC(C)n1nc(-c2ccc3oc(N)nc3c2)c2c(N)ncnc21 + CC1OCC2(CCN(c3cnc(Sc4ccnc(N)c4Cl)c(N)n3)CC2)C1N ?
Output line: no

Input line: Would you mind telling me which call this test gave CC(C)n1nc(-c2ccc3oc(N)nc3c2)c2c(N)ncnc21 + CNCc1ccccc1-c1csc(C(C)Nc2nc(C)nc3cc(OC)c(OC)cc23)c1 ?
Output line: yes

Input line: Would you mind telling me which call this test gave CN(C)C/C=C/C(=O)Nc1cc2c(Nc3ccc(F)c(Cl)c3)ncnc2cc1O[C@H]1CCOC1 + C=CC(=O)N1CCN(c2nc(=O)n(-c3c(C)ccnc3C(C)C)c3nc(-c4c(O)cccc4F)c(F)cc23)C(C)C1 ?
Output line: no

Input line: Would you mind telling me which call this test gave CC(=O)Nc1cccc(-n2c(=O)n(C3CC3)c(=O)c3c(Nc4ccc(I)cc4F)n(C)c(=O)c(C)c32)c1 + C=CC(=O)N1CCN(c2nc(=O)n(-c3c(C)ccnc3C(C)C)c3nc(-c4c(O)cccc4F)c(F)cc23)C(C)C1 ?
Output line: no

Please look at the following molecule next.
Input line: Would you mind telling me which call this test gave CC(C)n1nc(-c2ccc3oc(N)nc3c2)c2c(N)ncnc21 + C=CC(=O)N1CCN(c2nc(OCC3CCCN3C)nc3c2CCN(c2cccc4cccc(C)c24)C3)CC1CC#N ?
Output line: no

====

# Tested on: 276233-004-R-J1-PDC KRAS spheroids with HUVEC/MSC, viability
# protocol.details: Anticancer human tumor 276233-004-R-J1-PDC cell line growth inhibition [KRAS2];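 further: cells exposed to agents for seven days before viability read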;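 on viability, T/C: 100% = DMSO vehicle control wells and lower values mean fewer viable cells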
# assay.context: second compound 0.1 µM; first compound 0.0316 µM; stronger effect = lower value
Some compounds, each annotated with its measured viability, T/C.
Entry rule: numbers only, all in %.

Input line: Need viability, T/C, item COc1cc(Nc2ncc3c(n2)-c2ccc(Cl)cc2C(c2c(F)cccc2OC)=NC3)ccc1C(=O)O + C=CC(=O)N1CCN(c2nc(OCC3CCCN3C)nc3c2CCN(c2cccc4cccc(C)c24)C3)CC1CC#N
Output line: 85.9

---
Input line: Need viability, T/C, item Cn1ncnc1[C@H]1c2n[nH]c(=O)c3cc(F)cc(c23)N[C@@H]1c1ccc(F)cc1 + CC1OCC2(CCN(c3cnc(Sc4ccnc(N)c4Cl)c(N)n3)CC2)C1N
Output line: 94.3

Input line: Need viability, T/C, item CC(=O)Nc1cccc(-n2c(=O)n(C3CC3)c(=O)c3c(Nc4ccc(I)cc4F)n(C)c(=O)c(C)c32)c1 + CNCc1ccccc1-c1csc(C(C)Nc2nc(C)nc3cc(OC)c(OC)cc23)c1
Output line: 15.5

Input line: Need viability, T/C, item O=C(c1cc(Cc2n[nH]c(=O)c3ccccc23)ccc1F)N1CCN(C(=O)C2CC2)CC1 + CC1OCC2(CCN(c3cnc(Sc4ccnc(N)c4Cl)c(N)n3)CC2)C1N
Output line: 75.3

Input line: Need viability, T/C, item COC(=O)c1ccc2c(C(=Nc3ccc(N(C)C(=O)CN4CCN(C)CC4)cc3)c3ccccc3)c(O)[nH]c2c1 + C=CC(=O)N1CCN(c2nc(=O)n(-c3c(C)ccnc3C(C)C)c3nc(-c4c(O)cccc4F)c(F)cc23)C(C)C1
Output line: 104
